B1: Mesoderm posterior protein 1 (Homo sapiens), Q9BRJ9 (parent)
chain: MAQPLCPPLSESWMLSAAWGPTRRPPPSDKDCGRSLVSSPDSWGSTPADSPVASPARPGTLRDPRAPSVGRRGARSSRLGSGQRQSASEREKLRMRTLARALHELRRFLPPSVAPAGQSLTKIETLRLAIRYIGHLSAVLGLSEESLQRRCRQRGDAGSPRGCPLCPDDCPAQMQTRTQAEGQGQGRGLGLVSAVRAGASWGSPPACPGARAAPEPRDPPALFAEAACPEGQAMEPSPPSPLLPGDVLALLETWMPLSPLEWLPEEPK

variants of: B1; settings: with tfe2_human TCF3, P15923
Sequence (P15923 whole entry): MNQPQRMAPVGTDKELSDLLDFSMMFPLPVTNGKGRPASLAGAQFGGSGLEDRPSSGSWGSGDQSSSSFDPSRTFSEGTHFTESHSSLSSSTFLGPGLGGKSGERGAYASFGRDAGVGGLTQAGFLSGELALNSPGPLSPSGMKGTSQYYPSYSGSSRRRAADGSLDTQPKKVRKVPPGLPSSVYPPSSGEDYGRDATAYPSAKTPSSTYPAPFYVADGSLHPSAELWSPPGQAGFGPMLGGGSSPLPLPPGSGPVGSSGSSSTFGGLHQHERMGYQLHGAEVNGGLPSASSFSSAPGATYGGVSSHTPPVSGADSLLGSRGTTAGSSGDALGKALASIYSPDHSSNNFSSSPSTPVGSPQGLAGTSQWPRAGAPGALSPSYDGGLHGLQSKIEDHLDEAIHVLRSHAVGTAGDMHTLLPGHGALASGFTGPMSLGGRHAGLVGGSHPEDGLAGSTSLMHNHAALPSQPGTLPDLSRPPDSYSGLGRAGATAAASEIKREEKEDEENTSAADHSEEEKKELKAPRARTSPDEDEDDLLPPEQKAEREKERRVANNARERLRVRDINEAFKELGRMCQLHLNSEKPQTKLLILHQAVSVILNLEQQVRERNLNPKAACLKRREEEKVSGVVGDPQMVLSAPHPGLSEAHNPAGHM
valueType: effect of a mutation on the interaction

>>> result("G70D")
"with no effect"
>>> result("K268N")
"with no effect"
